Tested on: Hepatitis B virus
assayNotes: Antiviral activity against HBV infected in human HepDES19 cells assessed as reduction in HBV cccDNA production by measuring inhibition of HBeAg secretion incubated for 5 days by ELISA
Format: functional, organism-based
conditionSummary: HepDES19, 120 h
pIC50: −log10 of the molar value.
Decide using pIC50: a value greater than or equal to 7 is met, a smaller one is not met.

Inquiry: For this compound, is measured pIC50 7 or higher? COC(=O)C1NC(c2ccc(Br)cc2)=Nc2c(Cl)cccc21 (stereo unspecified)
Reply text: not met

Inquiry: Decide: pIC50 of O=C(O)C1NC(c2ccc(N3CCCC3)nc2)=Nc2c(Cl)cccc21 (stereo unspecified) >= 7?
Reply text: met

Inquiry: Does the compound NC(=O)C1NC(c2cccc(Br)c2)=Nc2cc(C(F)(F)F)ccc21 (stereo unspecified) have recorded pIC50 that is 7 or more?
Reply text: not met

Inquiry: Kindly determine if pIC50 recorded for COc1ccc2c(c1)CCN(C1=Nc3c(Cl)cccc3C(C)N1)C2=O (stereo unspecified) is above or exactly 7.
Reply text: met
